target: T1, PD1-Fc (canine, UniProt A0A090BAM7 25-168); experiment: Octet BLI competition, competitor PD-L1 Fc on AHC sensor, PD1 Fc 50 nM preincubated with supernatant 1/2
T1 construct: also called Only Ag (PD1 Fc)
T1 sequence (A0A090BAM7 entry or part of it limits assumed): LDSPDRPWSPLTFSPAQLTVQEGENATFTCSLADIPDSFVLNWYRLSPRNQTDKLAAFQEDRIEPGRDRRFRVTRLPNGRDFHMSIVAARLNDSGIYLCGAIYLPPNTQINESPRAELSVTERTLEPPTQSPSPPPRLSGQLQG
# maps each entry to its Response (nm)
Your answer should be a plain number; it is taken to be in nm.

// below: answered binders
>>> readout_value("PD-1 A-M1 (antibody, mouse IgG1, V domains shown, Mouse IgG1 kappa, tested as hybridoma supernatant; also called 2C08) VH: EVQLQQSGAELVKPGASVKLSCTASGFNIKDTYMHWVKQRPEQGLEWIGRIDPAIDNTKYDPKFQGKATITADTSSNTAYLQLSSLTSEDTAVYYCASGFYTMDYWGQGTSVTVSS VL: QIVLTQSPAIMSASPGEKVTMTCSASSSVTYMYWFQQKPGSSPRLWIYDTSNLVSGVPARFSGSRSGTSYSLTISSMEAEDAATYYCQQYSGHPSSFGSGTKLEIK")
-0.009
>>> readout_value("PD-1 A-M11 (antibody, V domains shown, Mouse IgG1 kappa, hybridoma supernatant; The VL is therefore uncertain; also called 9B04) VH: EVQLQQSGAEVVKPGASVKLSCTASGFNIKDTYMHWVKQRPEQGLEWIGRIDPAIGNPKYDPKFQGRATITADTSSNTAYLQLSSLTSEDTAVYYCASGFYAMDCWGQGTSVTVSS VL: QIVLTQSPAIMSASPGEKVTMTCSASSSITYMFWYQQKPGSSPRLWIYDTSNLVSGVPARFSGSKSGTSYSLTITSMEAEDAATYYCQQYSGYPSTFGSGTKLEIK")
-0.008

Now consider a different binder.
Lookup: Give the measured Response (nm) of PD-1 A-M15 (antibody, mouse IgG1, V domains shown, Mouse IgG1 kappa, hybridoma supernatant; also called 11E10) VH: EVRLQQSGAELVKPGASVKLSCTASGFNIKDTYLHWLKERPEQGLEWIGRIDPAIGNTRYDPKFQVKATITADTSSNTAYLQLSSLTSEDSAVYYCARGFYGMDYWGQGTSVTVSS VL: QIVLTQSPAIMSASPGEKVTMTCSASSSVSYMFWYQQKPGSSPRLWIYDTSNLVSGVPARFSGSRSGTSYSLTISSMEAEDAATYYCQQYSGYPYTFGGGTKLEIK .
Found: -0.005
